- Test system: rat hepatic microsomal PTPases
- ASSAY NOTES: Inhibition of tri-phosphorylated insulin receptor dodecaphosphopeptide dephosphorylation by rat hepatic PTPases (malachite green)
- Assay type: biochemical
- STATED CONDITIONS: PTPase activity, compound at 50 µM, rat liver microsomal fraction
OBSERVATION TYPE: % Change from Control (%)
// units = %; emit number, no label

Solved entries (count: 5):
1) O=C(O)C(Cc1ccccc1)Oc1ccc(-c2ccc(-c3c(Cc4ccccc4)oc4ccccc34)cc2)cc1 (centres unmarked): -61
2) O=C(O)C(Cc1ccccc1)Oc1ccc(-c2ccc(-c3c(Cc4ccccc4)sc4ccccc34)cc2)cc1 (centres unmarked): -50
3) CCCCc1oc2ccccc2c1-c1ccc(-c2ccc(O)cc2)cc1: -28
4) O=C(O)COc1ccc(-c2ccc(-c3coc4ccccc34)cc2)cc1: -11
5) CCCCc1sc2ccccc2c1-c1ccc(-c2ccc(OC(Cc3ccccc3)C(=O)O)cc2)cc1 (centres unmarked): -50

Request - read-out % Change from Control | tested on rat hepatic microsomal PTPases | compound O=C(O)[C@@H](Cc1ccccc1)Oc1ccc(-c2ccc(-c3ccsc3Cc3ccccc3)cc2)cc1 -19

Request - read-out % Change from Control | tested on rat hepatic microsomal PTPases | compound CCCCc1oc2ccccc2c1-c1ccc(-c2ccc(OC(Cc3ccccc3)C(=O)O)cc2)cc1 (centres unmarked) -72

Data provenance is patent EP1077967B1.
